Biological target: T1, human PACAP38 (human, not fully specified; C-terminal lysine is amidated; N-terminal or C-terminal biotin in the HTRF and PC-12 cell binding assays)
T1 construct: synthetic peptide, bought; also called huPACAP (1-38)
T1 peptide: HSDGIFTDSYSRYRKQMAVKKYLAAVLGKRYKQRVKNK
Assay: SPR, Ab immobilised
RESULT_TYPE: Kd

Solved entries (count: 2):
# BINDER, Kd
rows = [
    ("anti-PACAP antibody Ab2 (antibody, human IgG1, kappa, N297A, V domains shown, full-length rabbit/human chimeric antibody) VH: QSVEESGGRLVTPGTPLTLTCTVSGFSLSGAAMNWVRQAPGKGLEWIGVIGNSGSTYYASWAKGRFTISKTSSTTVDLKMTSPTTEDTATYFCARGGGEFFIWGQGTLVTVSS VL: AQVLTQTPSPVSAAVGGTVTINCQSSESVYKNNYLSWYQQKPGQPPKFLIYQASNLADGVPSRFKGSGSGTQFTLTISDLECDDAATYYCAGGYSTYMSGFGGGTEVVVKR", "≤ 0.044 nM"),
    ("anti-PACAP antibody Ab10.H (antibody, V domains shown) VH: EVQLVESGGGLVQPGGSLRLSCAASGIDLNSYYMTWVRQAPGKGLEWIGFIDAGGDAYYASWAKGRFTISRDNSKNTVYLQMNSLRAEDTAVYFCARDLDLWGQGTLVTVSS VL: DAQLTQSPSTLSASVGDRVTITCQSSESVYGNYLAWFQQKPGKAPKFLIYEASKLESGVPSRFSGSGSGTEFTLTISSLQPDDFATYYCAGGDISEGVAFGGGTKVEIKR", "0.029 nM"),
]

Now look at this entry.
[ask] Dear colleague, I am looking for the recorded Kd of the following binder: anti-PACAP antibody Ab5 (antibody, human IgG1, kappa, N297A, V domains shown, full-length rabbit/human chimeric antibody) VH: QSVEESGGRLVTPGTPLTLTCTVSGFSLSSYAMIWVRQAPGKGLEWIGIIYDNGDTYYASWAKGRFTISKTSTTVYLKIASPTTEDTATYFCAREPGSTTQNDLWGQGTLVTVSS VL: DVVMTQTPASVSEPVGGTVTIKCQASENIYNSLLWYQQKPGQPPKLLIYRASTLASGVSSRFKGSGSGTEFTLTISDLECADAATYYCQNYYNIWTNGAAFGGGTEVVVKR
[reply] ≤ 0.041 nM
